assay: soluble on expression in E. coli; label from the status in PepcDB or PDB records
property: soluble on expression in E. coli

>>> datavalue("MKVDGIQAEMRAMMVEATNTTPTGTGAKVGADFNDLLTKAINNVNSLQKSSGDLQTRFDRGDADVSLSDVMIARNKSSVAFEATVQIRNKLVEAYKDLMNMPV")
"not soluble"
>>> datavalue("MGSDKIHHHHHHMPSIENMIAWMQARKGKVTYSMTSRMGPNSYDCSSSIFFAMIAGGFLSAGSMGNTETLFGMSGTKLKEISRGEVQRGDVFISGTPGGSAGSDGHTGIFLSNGSFIHCSYTHNGIAVDTNDAYMSTRLPHHFYRIVGSGSGNTDNKPQMVTLNVDGQFGNATAKRLQEYFDTAGKDGVISHQYKQTFNQNIYAAQFDSSLTGSNVVKALQRFLGIGQDGLFGQGTIKALQKHLGTTQDGTISPVSDSVRELQRRLNANKL")
"not soluble"
